Where do the numbers come from? From ChEMBL document CHEMBL1123671.

Tested on: Mus musculus
Assay: Ability to kill 50% of the animals (administered orally), after sublethal dose of yohimbine (25 mg/Kg) when given subcutaneously.
Format: functional
Exercise: state measured ED50 for each of the compounds provided.
Answers are plain numbers, in mg/kg.

# annotated cases, reported ED50 shown
{"COMPOUND": "CCCOC(=O)[C@@]1(c2ccccc2)CC1CN(C)C.O=C(O)/C=C/C(=O)O (stereo not given in full)", "ED50, mg/kg": 25}
{"COMPOUND": "CCOC(=O)[C@@]1(c2ccccc2)CC1CN(C)CCO.O=C(O)/C=C/C(=O)O (stereo not given in full)", "ED50, mg/kg": 56}
{"COMPOUND": "CN(C)CCCN1c2ccccc2CCc2ccc(Cl)cc21", "ED50, mg/kg": 5}

Go through the list and state ED50 for each entry.
1. CCOC(=O)[C@@]1(c2ccccc2)CC1CN(C)CCc1ccccc1.Cl (stereo not given in full)
2. CC(C)N(C(=O)[C@@]1(c2ccccc2)CC1CN)C(C)C.Cl (stereo not given in full)
3. CCOC(=O)[C@@]1(c2ccccc2)CC1CN(C)C.Cl (stereo not given in full)
4. CN(C)CCCN1c2ccccc2CCc2ccccc21

## Output
15
15
10
7

----------
Tested on: Mus musculus
Test: Potentiation of 5-hydroxytryptophan-induced head twitch in mice after oral administration
Assay type: functional
Exercise: state measured ED50 for each of the compounds provided.
Answers are plain numbers, in mg/kg.

# annotated cases, reported ED50 shown
{"COMPOUND": "CN(C)CCCN1c2ccccc2CCc2ccccc21 [IMIPRAMINE]", "ED50 / mg/kg": 60}
{"COMPOUND": "CN(C)CCCN1c2ccccc2CCc2ccc(Cl)cc21 [CLOMIPRAMINE]", "ED50 / mg/kg": 37}
{"COMPOUND": "CCOC(=O)[C@@]1(c2ccccc2)CC1CN.Cl (stereo not given in full)", "ED50 / mg/kg": 73}

Switching to the query record.
## Input Tell me reported ED50 for Cc1ccc([C@]2(C(=O)OC(C)C)CC2CN)cc1.Cl (stereo not given in full) , tested with Mus musculus.
## Output 100

----------
Test system: Mus musculus
Experiment: Ability to kill 50% of the animals (administered orally), after sublethal dose of yohimbine (25 mg/Kg) when given subcutaneously.
Assay type: functional
REPORTED METRIC: ED50 (mg/kg)
Numbers only, in mg/kg.

# annotated cases, reported ED50 shown
{"MOLECULE": "CCCN(CCC)C(=O)[C@@]1(c2ccccc2)CC1CN.O=C(O)C(=O)O (stereo partly specified)", "TEST TARGET": "Mus musculus", "UNITS OF MEASURE": "mg/kg", "OBSERVED RESULT": 9}
{"MOLECULE": "CCOC(=O)[C@@]1(c2ccccc2)CC1CNC.Cl (stereo partly specified)", "TEST TARGET": "Mus musculus", "UNITS OF MEASURE": "mg/kg", "OBSERVED RESULT": 30}
{"MOLECULE": "CCOC(=O)[C@@]1(c2ccc(Cl)cc2)CC1CN(C)C.Cl (stereo partly specified)", "TEST TARGET": "Mus musculus", "UNITS OF MEASURE": "mg/kg", "OBSERVED RESULT": 2}
{"MOLECULE": "CCOC(=O)[C@@]1(c2ccccc2)CC1CN.Cl (stereo partly specified)", "TEST TARGET": "Mus musculus", "UNITS OF MEASURE": "mg/kg", "OBSERVED RESULT": 100}
{"MOLECULE": "CC(C)OC(=O)[C@@]1(c2ccccc2)CC1CN(C)C.Cl (stereo partly specified)", "TEST TARGET": "Mus musculus", "UNITS OF MEASURE": "mg/kg", "OBSERVED RESULT": 18}
{"MOLECULE": "CCN(CC)C(=O)[C@@]1(c2ccccc2)CC1CNC.O=C(O)C(=O)O (stereo partly specified)", "TEST TARGET": "Mus musculus", "UNITS OF MEASURE": "mg/kg", "OBSERVED RESULT": 4}
{"MOLECULE": "COC(=O)[C@@]1(c2ccccc2)CC1CN(C)C.Cl (stereo partly specified)", "TEST TARGET": "Mus musculus", "UNITS OF MEASURE": "mg/kg", "OBSERVED RESULT": 29}
{"MOLECULE": "CCNC(=O)[C@@]1(c2ccccc2)CC1CN.O=C(O)C(=O)O (stereo partly specified)", "TEST TARGET": "Mus musculus", "UNITS OF MEASURE": "mg/kg", "OBSERVED RESULT": 19}

Switching to the query record.
## Input Any idea what ED50 was measured for CC(C)OC(=O)[C@@]1(c2ccccc2)CC1CN.Cl (stereo partly specified) ?
## Output 18
